Provide the reported log10 IC50 of each item.
# subject.of.test: human P2X3 receptor (Homo sapiens (Human), UniProt P56373)
# Sequence (P56373 whole entry): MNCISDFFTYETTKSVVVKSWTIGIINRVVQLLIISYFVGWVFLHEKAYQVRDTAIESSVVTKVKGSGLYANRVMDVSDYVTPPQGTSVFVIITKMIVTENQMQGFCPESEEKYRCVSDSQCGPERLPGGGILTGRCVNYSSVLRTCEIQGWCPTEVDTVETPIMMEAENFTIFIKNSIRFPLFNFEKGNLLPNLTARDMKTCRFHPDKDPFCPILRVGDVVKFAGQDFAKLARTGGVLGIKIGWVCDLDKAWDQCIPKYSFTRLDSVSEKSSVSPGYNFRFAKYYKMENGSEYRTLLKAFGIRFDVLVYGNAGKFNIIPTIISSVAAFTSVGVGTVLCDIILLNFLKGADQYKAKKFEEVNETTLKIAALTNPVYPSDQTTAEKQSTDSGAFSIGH
# method.notes: Evaluation of human P2X3 receptor inhibitory activity (Fluo-3 calcium fluorescence, FDSS 3000, ATP stimulation)
# Format: cell-based
# setup.conditions: C6BU-1 cells stably expressing human P2X3 receptor, Fluo-3 fluorescence, FDSS 3000
Values are log10 of IC50 in nM.

# log10 IC50 (molecule: `O=C(O)c1cc(Oc2ccc(/N=c3\[nH]c(=O)[nH]c(=O)n3Cc3ccc(Cl)cc3)cc2)ccn1` ) is 0.85

# log10 IC50 (molecule: `CCc1oc2ccc(/N=c3\[nH]c(=O)n(CC(CO)CO)c(=O)n3Cc3ccc(Cl)cc3)cc2c1C` ) is 0.70

# log10 IC50 (molecule: `C[C@H](Oc1ccc(/N=c2\[nH]c(=O)n(C[C@H](C)C(=O)O)c(=O)n2Cc2ccc(Cl)cc2)cc1)C(F)(F)F` ) is 1.91

# log10 IC50 (molecule: `CCc1oc2ccc(/N=c3\[nH]c(=O)n(CC(=O)NCCO)c(=O)n3Cc3ccc(Cl)cc3)cc2c1C` ) is 0.78

# log10 IC50 (molecule: `O=c1[nH]/c(=N\c2ccc(Oc3ccc(O)nc3)cc2)n(Cc2ccc(Cl)cc2)c(=O)n1CCO` ) is 1.48

# log10 IC50 (molecule: `CCc1nc2ccc(/N=c3\[nH]c(=O)n(CC(C)(C)C(=O)OC)c(=O)n3Cc3ccc(Cl)cc3)cc2s1` ) is 0.70

# log10 IC50 (molecule: `CC[C@@H](C)Oc1ccc(/N=c2\[nH]c(=O)n(C[C@H](C)C(=O)OC)c(=O)n2Cc2ccc(C)cc2)cc1Cl` ) is 0.85

====

# subject.of.test: human P2X3 receptor (Homo sapiens (Human))
# method.notes: Evaluation of human P2X3 receptor inhibitory activity (Fluo-3 calcium fluorescence, FDSS 3000, ATP stimulation)
# Assay type: cell-based
# setup.conditions: C6BU-1 cells stably expressing human P2X3 receptor
Provide the reported pIC50 of each item.
When answering, recall that pIC50 equals minus log10 of the concentration in mol/L, and write that number alone.

# pIC50 (compound: `Cc1cc(Oc2ccc(/N=c3\[nH]c(=O)n(CC(CO)CO)c(=O)n3Cc3ccc(Cl)cc3)cc2)ccn1` ) is 8.30

# pIC50 (compound: `CC1(C)OCC(Cn2c(=O)[nH]/c(=N\c3ccc4nc(C5CC5)sc4c3)n(Cc3ccc(Cl)cc3)c2=O)CO1` ) is 8.05

# pIC50 (compound: `CC(C)Oc1ccc(/N=c2\[nH]c(=O)n(C(C)(C)C(=O)O)c(=O)n2Cc2ccc(Cl)cc2)cc1Cl` ) is 7.01

# pIC50 (compound: `CC(C)Oc1ccc(/N=c2\[nH]c(=O)n(CCCN/C(=N\C#N)Oc3ccccc3)c(=O)n2Cc2ccc(Cl)cc2)cc1F` ) is 7.96

====

# subject.of.test: human P2X3 receptor (Homo sapiens (Human), UniProt P56373)
# method.notes: Evaluation of human P2X3 receptor inhibitory activity (Fluo-3 calcium fluorescence, FDSS 3000, ATP stimulation);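 also: stimulus was 50 nM ATP with fluorescence followed for 3 min, and the response per well was peak post-ATP fluorescence divided by the reading at measurement start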
# Format: cell-based
# setup.conditions: C6BU-1 cells stably expressing human P2X3 receptor
Provide the reported pIC50 of each item.
When answering, recall that pIC50 equals minus log10 of the concentration in mol/L, and write that number alone.

human P2X3 receptor (Homo sapiens (Human), UniProt P56373) pIC50 of `CC(C)Oc1ccc(/N=c2\[nH]c(=O)n(CC(=O)NCC3CCOCC3)c(=O)n2Cc2ccc(Cl)cc2)cc1Cl` is 8.22

human P2X3 receptor (Homo sapiens (Human), UniProt P56373) pIC50 of `COC(=O)C(C)(C)Cn1c(=O)[nH]/c(=N\c2ccc(OCC3CC3)cc2)n(Cc2ccc(C)cc2)c1=O` is 7.82

human P2X3 receptor (Homo sapiens (Human), UniProt P56373) pIC50 of `COC(=O)c1ccc(Oc2ccc(/N=c3\[nH]c(=O)n(C)c(=O)n3Cc3ccc(Cl)cc3)cc2)cc1` is 8.15

human P2X3 receptor (Homo sapiens (Human), UniProt P56373) pIC50 of `Cc1ccc(Cn2c(=O)n([C@H](C)[C@H](C)C(=O)O)c(=O)[nH]/c2=N\c2ccc(OCC3CC3)cc2)cc1` is 7.44

human P2X3 receptor (Homo sapiens (Human), UniProt P56373) pIC50 of `Cc1ccc(Cn2c(=O)n(CCCC(=O)O)c(=O)[nH]/c2=N\c2ccc(Oc3ccncc3)cc2)cc1` is 7.92

human P2X3 receptor (Homo sapiens (Human), UniProt P56373) pIC50 of `COC(=O)[C@@H](C)Cn1c(=O)[nH]/c(=N\c2ccc3nc(C)ccc3c2)n(Cc2ccc(C)cc2)c1=O` is 8.22

human P2X3 receptor (Homo sapiens (Human), UniProt P56373) pIC50 of `C[C@H](CO)Cn1c(=O)[nH]/c(=N\c2ccc3oc(CO)cc3c2)n(Cc2ccc(Cl)cc2)c1=O` is 7.09
